# Test system: Hepatitis C virus
# assay.name: Antiviral activity against HCV genotype 1a infected in Huh7.5 cells assessed as inhibition of viral replication after 3 days by blot hybridization analysis
# Type: functional, organism-based, Hepacivirus hominis
# run.parameters: subtype 1a, Huh7.5, 72 h
Measured EC90 by item
reported.metric: EC90

> print(dat)
                                   molecule  reported.metric  measured.result
1  CC(=O)Oc1ccccc1C(=O)Nc1ncc([N+](=O)[O-])s1 [NITAZOXANIDE]             EC90           1.1 µM
2               N#Cc1cnc(NC(=O)c2ccccc2O)s1             EC90          > 10 µM
3                 O=C(Nc1ncc(F)s1)c1ccccc1O             EC90          > 10 µM

---

# assay.name: Selectivity index, ratio of CC50 for human Huh7.5 cells to EC50 for HCV genotype 1a infected in human Huh7.5 cells
# Design: species or system Huh-7
Measured Ratio CC50/EC50 by item
reported.metric: Ratio CC50/EC50

> print(dat)
                                   compound  reported.metric  measured.result
1          CC(=O)Oc1ccccc1C(=O)Nc1ncc(Cl)s1  Ratio CC50/EC50               14
2  CC(=O)Oc1ccccc1C(=O)Nc1ncc([N+](=O)[O-])s1 [NITAZOXANIDE]  Ratio CC50/EC50              149
3       CC(=O)Oc1ccc(C)cc1C(=O)Nc1ncc(Br)s1  Ratio CC50/EC50              3.7
4       CC(=O)Oc1c(C)cccc1C(=O)Nc1ncc(Cl)s1  Ratio CC50/EC50               14
5  O=C(Nc1ncc([N+](=O)[O-])s1)c1ccccc1O [TIZOXANIDE]  Ratio CC50/EC50               56
6          CC(=O)Oc1ccccc1C(=O)Nc1ncc(Br)s1  Ratio CC50/EC50                6
7                O=C(Nc1ncc(Br)s1)c1ccccc1O  Ratio CC50/EC50             31.4

---

Measured CC50 at 72 h by item
# assay.name: Cytotoxicity against human Ava5 cells after 3 days by neutral red dye assay
# Type: cell-based
reported.metric: CC50 at 72 h (µM)

> print(dat)
                                    compound  reported.metric  qual  measured.result
 1    CC(=O)Oc1ccccc1C(=O)Nc1ncc(C(F)(F)F)s1     CC50 at 72 h     =              1.7
 2               Cc1nc(NC(=O)c2ccccc2O)sc1Br     CC50 at 72 h     =               15
 3                 Cc1cnc(NC(=O)c2ccccc2O)s1     CC50 at 72 h     =               45
 4  CC(=O)Oc1ccccc1C(=O)Nc1ncc([N+](=O)[O-])s1 [NITAZOXANIDE]     CC50 at 72 h     =               35
 5    CC(=O)Oc1ccccc1C(=O)Nc1nc(C(F)(F)F)cs1     CC50 at 72 h     =              2.8
 6  O=C(Nc1ncc([N+](=O)[O-])s1)c1cc(Cl)ccc1O     CC50 at 72 h     >              100
 7             Cc1cccc(C(=O)Nc2ncc(Br)s2)c1O     CC50 at 72 h     =               15
 8  O=C(Nc1cc(C(F)(F)F)cc(C(F)(F)F)c1)c1ccccc1O     CC50 at 72 h     =              3.7
 9           Cc1ccc(O)c(C(=O)Nc2ncc(Cl)s2)c1     CC50 at 72 h     =              2.3
10                 O=C(Nc1ncc(F)s1)c1ccccc1O     CC50 at 72 h     =               24
11       O=C(Nc1cc(C(F)(F)F)ccc1Cl)c1ccccc1O     CC50 at 72 h     =             0.33
12        CS(=O)(=O)c1csc(NC(=O)c2ccccc2O)n1     CC50 at 72 h     =               85

---

Measured CC50 at 72 h by item
# assay.name: Cytotoxicity against human Ava5 cells after 3 days by neutral red dye assay
# Format: cell-based
reported.metric: CC50 at 72 h (µM)

> print(dat)
                                    compound  qual  measured.result
 1         CC(=O)Oc1ccccc1C(=O)Nc1ccc(Br)cc1     =              0.6
 2  CS(=O)(=O)c1cnc([N-]C(=O)c2ccccc2O)s1.[Na+]     =               43
 3            O=C(Nc1ncc(Br)s1)c1cccc(Cl)c1O     =               10
 4           Cc1ccc(C(=O)Nc2ncc(Cl)s2)c(O)c1     =               30
 5          CC(=O)Oc1ccccc1C(=O)Nc1ncc(Cl)s1     =              4.3
 6         O=C(Nc1nc(-c2ccccc2)cs1)c1ccccc1O     =               14
 7               N#Cc1cnc(NC(=O)c2ccccc2O)s1     =               15
 8       CS(=O)(=O)c1ccc(NC(=O)c2ccccc2O)cc1     >              100
 9  C[S+]([O-])c1csc(NC(=O)c2ccccc2O)n1 (stereo unspecified)     =               63
10                O=C(Nc1ncc(Br)s1)c1ccccc1O     =               20
11                 O=C(Nc1ccccc1Cl)c1ccccc1O     =               72

---

# assay.name: Cytotoxicity against human Huh7.5 cells after 3 days by neutral red dye assay
# Assay type: cell-based, Huh-7
reported.metric: log10(CC50 at 72 h) (log10 of the value in µM)

> print(dat)
                                    molecule  measured.result
 1          CC(=O)Oc1ccccc1C(=O)Nc1ncc(Cl)s1             0.76
 2                O=C(Nc1ncc(Br)s1)c1ccccc1O             1.94
 3           Cc1ccc(O)c(C(=O)Nc2ncc(Cl)s2)c1             1.20
 4          CC(=O)Oc1ccccc1C(=O)Nc1ncc(Br)s1             1.32
 5                 O=C(Nc1ncc(F)s1)c1ccccc1O             0.46
 6    CC(=O)Oc1ccccc1C(=O)Nc1ncc(C(F)(F)F)s1             1.15
 7       CC(=O)Oc1c(C)cccc1C(=O)Nc1ncc(Cl)s1             1.15
 8       CC(=O)Oc1ccc(C)cc1C(=O)Nc1ncc(Br)s1             1.04
 9               N#Cc1cnc(NC(=O)c2ccccc2O)s1             1.04
10  CC(=O)Oc1ccccc1C(=O)Nc1ncc([N+](=O)[O-])s1 [NITAZOXANIDE]             1.69
11     O=C(Nc1nc(-c2ccccc2)c(Br)s1)c1ccccc1O             1.79
12         O=C(Nc1nc(-c2ccccc2)cs1)c1ccccc1O             1.46
13  O=C(Nc1ncc([N+](=O)[O-])s1)c1ccccc1O [TIZOXANIDE]             1.15
14             Cc1cccc(C(=O)Nc2ncc(Br)s2)c1O             1.40
15            O=C(Nc1ncc(Br)s1)c1cccc(Cl)c1O             1.04

---

# Test system: Hepatitis C virus
# assay.name: Antiviral activity against HCV genotype 1a infected in Huh7.5 cells assessed as inhibition of viral replication after 3 days by blot hybridization analysis
# Format: functional, organism-based, Hepacivirus hominis
# run.parameters: subtype 1a, Huh7.5, 72 h
Measured EC90 by item
reported.metric: EC90 (µM)

> print(dat)
                                    molecule  reported.metric  qual  measured.result
 1             Cc1cccc(C(=O)Nc2ncc(Br)s2)c1O             EC90     >               10
 2       CC(=O)Oc1c(C)cccc1C(=O)Nc1ncc(Cl)s1             EC90     =              3.8
 3     O=C(Nc1nc(-c2ccccc2)c(Br)s1)c1ccccc1O             EC90     >               10
 4                O=C(Nc1ncc(Br)s1)c1ccccc1O             EC90     =              9.4
 5          CC(=O)Oc1ccccc1C(=O)Nc1ncc(Cl)s1             EC90     =              1.9
 6  O=C(Nc1ncc([N+](=O)[O-])s1)c1ccccc1O [TIZOXANIDE]             EC90     =                1
 7         O=C(Nc1nc(-c2ccccc2)cs1)c1ccccc1O             EC90     >               10
 8           Cc1ccc(O)c(C(=O)Nc2ncc(Cl)s2)c1             EC90     =               10
 9       CC(=O)Oc1ccc(C)cc1C(=O)Nc1ncc(Br)s1             EC90     =              8.6
10          CC(=O)Oc1ccccc1C(=O)Nc1ncc(Br)s1             EC90     =               10
11    CC(=O)Oc1ccccc1C(=O)Nc1ncc(C(F)(F)F)s1             EC90     >               10
12            O=C(Nc1ncc(Br)s1)c1cccc(Cl)c1O             EC90     >               10

The reported numbers originate from ChEMBL document CHEMBL1938327.
